Quick reference for switch fluorescence ratio among some sequences
Tested on: ATP;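 further: ATP exposure 15 min at 22 °C before imaging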
ASSAY SUMMARY: switch fluorescence ratio, 500 uM ATP over buffer (Cy3 cluster intensity, sum of 5 cycles each) (fold (ratio)); higher = stronger signal-on switching upon ATP binding; sequences stand for … in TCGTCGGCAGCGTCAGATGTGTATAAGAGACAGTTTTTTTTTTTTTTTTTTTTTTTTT…TC
ASSAY SETUP: aptamer strand: ATP DNA aptamer (quencher-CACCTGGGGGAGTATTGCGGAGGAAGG + anchor), 100 nM annealed; ATP concentration: 500 uM
MEASURED PROPERTY: switch fluorescence ratio

- TTAATGCGCA: 1
- TTGATTTTAG: 1
- AGCTATTGGG: 0.975
- GCTTTATGAA: 1.02
- GGGCGGGATG: 0.984
- CGAGGAGCAT: 1.01
- ACCGGAGTTC: 1.23
- GCCTGCGGGA: 1.1
- TGTTAAGGAA: 1.02
- GTTCCGGGTT: 0.983

* * *

Test system: ATP;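 further: ATP exposure 15 min at 22 °C before imaging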
ASSAY SUMMARY: switch fluorescence ratio, 500 uM ATP over buffer (Cy3 cluster intensity, sum of 5 cycles each) (fold (ratio)); higher = stronger signal-on switching upon ATP binding; sequences stand for … in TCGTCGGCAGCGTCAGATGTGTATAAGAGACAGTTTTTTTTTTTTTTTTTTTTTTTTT…TC
ASSAY SETUP: aptamer strand: ATP DNA aptamer (quencher-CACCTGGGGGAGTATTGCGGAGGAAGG + anchor), 100 nM annealed; ATP concentration: 500 uM
MEASURED PROPERTY: switch fluorescence ratio

- CGAATTGGTG: 1.03
- TGTGTCAGTG: 1.01
- GGATTAAAGG: 1.03
- ACTCTTGTTT: 1.03
- TATTTTTTTC: 1
- TGGGTATGAA: 0.977
- AAGTACGTAG: 1.01
- TAAAATGGGT: 0.996
- ACTGGTCAGC: 1
- TGCCATCCTA: 0.991

* * *

Tested on: ATP;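 further: ATP exposure 15 min at 22 °C before imaging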
ASSAY SUMMARY: switch fluorescence ratio, 500 uM ATP over buffer (Cy3 cluster intensity, sum of 5 cycles each) (fold (ratio)); higher = stronger signal-on switching upon ATP binding; sequences stand for … in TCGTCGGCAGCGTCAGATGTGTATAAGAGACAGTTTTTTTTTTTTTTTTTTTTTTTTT…TC
ASSAY SETUP: aptamer strand: ATP DNA aptamer (quencher-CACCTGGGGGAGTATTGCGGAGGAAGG + anchor), 100 nM annealed; ATP concentration: 500 uM
Quick reference for switch fluorescence ratio among some sequences
MEASURED PROPERTY: switch fluorescence ratio

* TTATTTATTC | 1.03
* GGGGGTGCGG | 0.977
* CAAAGATAGT | 0.996
* AGGGGGACAC | 1
* TTGAGATACG | 1
* GTTATCAGGG | 0.995
* TAAGCTTTTT | 1
* TCTTTATACT | 1.05
* CCAGGACGTA | 1.02
* GGGCCTGGGG | 0.998
* TGGGAAGTTT | 0.978
* AATGTGTGCT | 0.949
* CCGATTCGGG | 1.01
* GTTTCGTTTC | 1.01
* AGTGTGGGCG | 1.04
* GATTTCTCGT | 0.955
* TTAGGATGGC | 1.2
* ATAAAACATG | 0.979
* TAGGCTTGAA | 1.03
* TCGGGTTAGT | 1.01
* TTTTTAAGAG | 1
* GTATCTAGTT | 0.996
* TATGGTCATA | 0.999
* TTTAGCTTCA | 1.1
* TGATTGGAGG | 0.994
* GGGTAGTAGT | 0.958
* AGGGGTCAAT | 0.997
* TGAAGATAAC | 1.02
* GTTGTTTTCA | 0.993
* TGGGGGAATC | 1.02
* TTTGGCTTAA | 0.996
* TTTCTAAGTC | 0.956
* TATTGTCGTT | 1.02
* AGGTGTGATA | 1.1
* TTTGCTCGGG | 1
* AGACGCGTAG | 0.999
* CGCTTTTGGA | 1
* GATGAGGCGG | 0.983
* TGTTGGACGT | 1.04
* GACGTTTCTG | 1.01
* AAAATGGGGT | 1.02
* GTTCCTTAGG | 1.01
* TAGGTCGATA | 1
